Study system: Stb4 (UniProt P50104)
Sequence (P50104 whole entry): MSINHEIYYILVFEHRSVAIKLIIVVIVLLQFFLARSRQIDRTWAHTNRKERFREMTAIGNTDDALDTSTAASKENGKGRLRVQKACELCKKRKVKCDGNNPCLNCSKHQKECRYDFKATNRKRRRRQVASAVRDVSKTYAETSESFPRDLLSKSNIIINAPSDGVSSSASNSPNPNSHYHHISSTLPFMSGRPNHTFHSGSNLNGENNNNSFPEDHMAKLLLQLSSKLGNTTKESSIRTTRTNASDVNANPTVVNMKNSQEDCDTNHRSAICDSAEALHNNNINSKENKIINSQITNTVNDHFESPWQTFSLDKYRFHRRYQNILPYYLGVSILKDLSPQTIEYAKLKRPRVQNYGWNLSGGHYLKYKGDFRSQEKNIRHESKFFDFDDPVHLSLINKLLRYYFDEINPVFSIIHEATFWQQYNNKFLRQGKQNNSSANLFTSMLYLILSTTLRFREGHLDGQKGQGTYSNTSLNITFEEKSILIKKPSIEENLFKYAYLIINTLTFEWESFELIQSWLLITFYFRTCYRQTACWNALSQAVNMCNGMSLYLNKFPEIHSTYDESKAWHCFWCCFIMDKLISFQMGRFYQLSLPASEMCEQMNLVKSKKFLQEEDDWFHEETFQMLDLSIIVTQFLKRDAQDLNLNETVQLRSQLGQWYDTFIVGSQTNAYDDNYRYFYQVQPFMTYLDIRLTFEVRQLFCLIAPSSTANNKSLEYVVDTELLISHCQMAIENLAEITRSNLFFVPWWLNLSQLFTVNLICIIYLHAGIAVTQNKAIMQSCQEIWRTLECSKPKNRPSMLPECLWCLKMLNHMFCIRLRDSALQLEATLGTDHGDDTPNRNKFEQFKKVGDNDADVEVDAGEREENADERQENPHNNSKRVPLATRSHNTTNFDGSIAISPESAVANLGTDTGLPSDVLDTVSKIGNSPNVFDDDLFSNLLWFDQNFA
Method notes: PBM E-score (8-mer binding enrichment) (E-score (-0.5 to 0.5)); higher = stronger / more preferred TF binding
Stated conditions: protein concentration: 200 nM; construct: GST-DNA-binding domain
Over roughly 33,000 sequences, “E-score (-0.5 to 0.5)” has its median near -0.056; the highest 2% begin near 0.38. This excerpt belongs to a sample that is enriched for the highest values.
Use 0.3 as the dividing line for PBM E-score, with the line itself on the fulfilled side and lower values as not fulfilled.

Macromolecule sequence | Class name
CACCGAAG | not fulfilled
AACCGAAA | fulfilled
GTTTCCCA | not fulfilled
GCATATGC | not fulfilled
TCGGCAAA | fulfilled
AGCCGGAC | not fulfilled
AGCCGGAA | fulfilled
TTCTACAA | not fulfilled
TGCCGGAA | fulfilled
ATCCTCTG | not fulfilled
GCGGAAAA | fulfilled
CGAGCTAC | not fulfilled
CTTCTTTA | not fulfilled
GGTAGACC | not fulfilled
ACAGCCAA | not fulfilled
CTTTCCGA | fulfilled
CCAGATAC | not fulfilled
GCGGGAGA | not fulfilled
TACTCAAA | not fulfilled
CGCCGGAG | not fulfilled
CCGGCCCG | fulfilled
CTTACCGC | not fulfilled
CTCCGAAG | fulfilled
AGCCGGAG | fulfilled
AGCCGGAT | fulfilled
AATATAAC | not fulfilled
GCGCAAAC | not fulfilled
ACTAGGTA | not fulfilled
AGAGCTCT | not fulfilled
ATTTCCGA | fulfilled
CTACAGTC | not fulfilled
CGAACGGA | fulfilled
AGCAGCTG | not fulfilled
CACCGAGA | not fulfilled
GTTTCCGA | fulfilled
CCCTTTTA | not fulfilled
CCGGGCCA | not fulfilled
CTTTCCCA | not fulfilled
ACCGAGCT | fulfilled
TAGTTTGA | not fulfilled
ATGCCCAG | not fulfilled
TACCGAGA | fulfilled
GTCGAAAA | not fulfilled
AGATTTAG | not fulfilled
GTGATCTA | not fulfilled
CTGCAAAG | not fulfilled
ACCATAGC | not fulfilled
ACTGTCTG | not fulfilled
ACTTCCGC | fulfilled
ACGGAAAA | fulfilled
CAGGATTA | not fulfilled
ACGGCAAA | not fulfilled
AACCGACA | not fulfilled
GACCGAGA | fulfilled
CACGCTCG | not fulfilled
ACTTCCCA | not fulfilled
CTGGCTGC | not fulfilled
CGCCGGAA | fulfilled
AGAAAGGG | not fulfilled
AACCGAGA | fulfilled
AGAATTGA | not fulfilled
GCTTCCGA | fulfilled
ACCCAGCG | not fulfilled
GCCATAAC | not fulfilled
ATCCGAAT | fulfilled
ACTTCCCG | fulfilled
GCAGCCAA | not fulfilled
CCCGTCGC | not fulfilled
ACGGCCCG | not fulfilled
CACAGATG | not fulfilled
GTCCGAAA | fulfilled
ATCCCGGC | fulfilled
AGGTTGGC | not fulfilled
CAGTCCCC | not fulfilled
AACCGATA | not fulfilled
CCTTCCTA | not fulfilled
AGTTACTA | not fulfilled
ACTAGAAC | not fulfilled
CAGCTTTA | not fulfilled
ACTTCCGA | fulfilled
ACATTGGA | not fulfilled

====

Study system: Stb4 (UniProt P50104)
Method notes: PBM E-score (8-mer binding enrichment) (E-score (-0.5 to 0.5)); higher = stronger / more preferred TF binding
Stated conditions: protein concentration: 200 nM; construct: GST-DNA-binding domain
Whole data set: some 33,000 sequences, median “E-score (-0.5 to 0.5)” near -0.056, cut for the highest 2% near 0.38. The entries come from a sample that favours the highest values as a whole.
Readings of PBM E-score for the listed sequences
Experimental endpoint: PBM E-score

Macromolecule sequence | Study system | Result
CCGCTCGA | Stb4 (UniProt P50104) | 0.11
GAGTCGGC | Stb4 (UniProt P50104) | 0.223
GGTTTTAA | Stb4 (UniProt P50104) | 0.126
ATGAAAAT | Stb4 (UniProt P50104) | 0.0835
GCAAGTAA | Stb4 (UniProt P50104) | -0.0627
CCGGATAC | Stb4 (UniProt P50104) | 0.409
ATCTGACA | Stb4 (UniProt P50104) | -0.0757
AGTCGGAA | Stb4 (UniProt P50104) | 0.451
AGTCGGAC | Stb4 (UniProt P50104) | 0.176
ACGTTTGC | Stb4 (UniProt P50104) | -0.11
GCTTTCAA | Stb4 (UniProt P50104) | -0.0547
CCGAATCG | Stb4 (UniProt P50104) | 0.405
AGGAGTCG | Stb4 (UniProt P50104) | -0.142
CGTTCCAG | Stb4 (UniProt P50104) | -0.0906
TCCGCAGA | Stb4 (UniProt P50104) | 0.0922
ACTGAGTC | Stb4 (UniProt P50104) | -0.0516
CGGAATTA | Stb4 (UniProt P50104) | 0.401
ACGGGCCT | Stb4 (UniProt P50104) | 0.0389
GTGTGAAC | Stb4 (UniProt P50104) | 0.0138
CTAGCCAC | Stb4 (UniProt P50104) | -0.287
TACCAAAA | Stb4 (UniProt P50104) | -0.12
AACTTCTC | Stb4 (UniProt P50104) | 0.0267
ACGCTACC | Stb4 (UniProt P50104) | 0.00891
TGTCGTAA | Stb4 (UniProt P50104) | -0.215
ATTTATGG | Stb4 (UniProt P50104) | -0.152
GAGTCGGA | Stb4 (UniProt P50104) | 0.387
CTCCGTGC | Stb4 (UniProt P50104) | 0.217
CAACCATA | Stb4 (UniProt P50104) | -0.251
GCGAATCC | Stb4 (UniProt P50104) | -0.0095
AAGGTACG | Stb4 (UniProt P50104) | -0.0106
AGACACTA | Stb4 (UniProt P50104) | 0.00615
CTCCGCGC | Stb4 (UniProt P50104) | 0.168
TGTCGGAA | Stb4 (UniProt P50104) | 0.416
ATCCTAGG | Stb4 (UniProt P50104) | -0.0251
AGCGCTCG | Stb4 (UniProt P50104) | -0.0312
AGATACTG | Stb4 (UniProt P50104) | -0.169
CGGAACTC | Stb4 (UniProt P50104) | 0.401
GCGGATAC | Stb4 (UniProt P50104) | 0.367
ATGATTTC | Stb4 (UniProt P50104) | 0.0687

====

Study system: Stb4 (UniProt P50104)
Method notes: PBM E-score (8-mer binding enrichment) (E-score (-0.5 to 0.5)); higher = stronger / more preferred TF binding
Stated conditions: protein concentration: 200 nM; construct: GST-DNA-binding domain
Whole data set: some 33,000 sequences, median “E-score (-0.5 to 0.5)” near -0.056, cut for the highest 2% near 0.38. The sample holds the highest values, similar sequences and a random draw of the others, so the mix is not that of the screen.
sequences and their reported PBM E-score
Experimental endpoint: PBM E-score

Macromolecule sequence | Study system | Result
AGCTCGCA | Stb4 (UniProt P50104) | -0.108
CGCTCGGC | Stb4 (UniProt P50104) | 0.412
AAGTGCGG | Stb4 (UniProt P50104) | 0.226
CGCTCGGA | Stb4 (UniProt P50104) | 0.463
GGTCTAAC | Stb4 (UniProt P50104) | 0.0261
CGTTCCGC | Stb4 (UniProt P50104) | 0.412
AGTTCCCG | Stb4 (UniProt P50104) | 0.396

====

Study system: Stb4 (UniProt P50104)
Method notes: PBM E-score (8-mer binding enrichment) (E-score (-0.5 to 0.5)); higher = stronger / more preferred TF binding
Stated conditions: protein concentration: 200 nM; construct: GST-DNA-binding domain
Whole data set: some 33,000 sequences, median “E-score (-0.5 to 0.5)” near -0.056, cut for the highest 2% near 0.38. The full list was thinned out, with the highest values kept by preference.
Categories are defined by ranges of PBM E-score, namely lo (below -0.1), med (-0.1 to below 0.06), hi (0.06 or more)

Macromolecule sequence | Class name
AAAGCCAG | lo
ATGAGATC | lo
TTCCCGAA | hi
CAACTAGA | lo
AGGAACGA | med
CACCCTAA | lo
GTGACCAA | lo
GGGAACGA | med
TACATCCA | lo
GTCCCGAC | hi
AGCCCGAC | hi
ACTCCCGA | hi
ATTGACGA | lo
CAGAACGC | lo
GTCCCGCA | hi
AATCTAAG | lo
AGGAACGC | med
